Data origin, for the record: patent US12152030B2

IC50, MNK1 (Homo sapiens, UniProt Q9BUB5): measured values
Structures can show the parent of a compound that is named as a salt.
endpointName: IC50

1) Cc1c2c(c(=O)n3c1C(=O)NC3(C)c1cccc(F)c1)Nc1cc(N)ncc1C2 (stereo not shown) [Compound 10, hydrochloride]	10 to 100 nM
2) Cc1c2c(c(=O)n3c1C(=O)NC31CCCC1)Nc1cc(N)ncc1C2 [Compound 6]	10 to 100 nM
3) Cc1c2n(c(=O)c3[nH]c4cc(N)ncc4c(=O)c13)C1(CCCCC1)NC2=O [Compound 1]	10 to 100 nM
4) CC(=O)Nc1cc2c(cn1)Cc1c(C)c3n(c(=O)c1N2)C1(CCCCC1)NC3=O [Compound 21]	< 10 nM

* * *

- System: Phosphorylated eIF4E
- methodNotes: Intracellular peIF4E signaling assay
- Assay type: cell-based
- experimentalConditions: 2 h; two hours incubation at 37° C.; read-out: peIF4E signaling cell assay IC50
pIC50: −log10 of the molar value. Structures can show the parent of a compound that is named as a salt.
Quick reference: pIC50 of the listed items.
endpointName: pIC50

1) Cc1c2c(c(=O)n3c1C(=O)NC31CCN(C)CC1)Nc1cc(N)ncc1C2	6.00 to 7.30
2) Cc1c2c(c(=O)n3c1C(=O)NC31CCCCC1)Nc1cc(NC(=O)C3CCC3)ncc1C2	> 7.30
3) Cc1c2n(c(=O)c3[nH]c4cc(N)ncc4c(=O)c13)C1(CCCCC1)NC2=O	> 7.30
4) Cc1cc2[nH]c3c(=O)n4c(c(C)c3c(=O)c2cn1)C(=O)NC41CCCCC1	4.00 to 6.00
5) Cc1c2c(c(=O)n3c1C(=O)NC31CCCC1)Nc1cc(N)ncc1C2	> 7.30
6) Cc1c2c(c(=O)n3c1C(=O)NC3(C)c1cccc(Cl)c1)Nc1cc(N)ncc1C2 (stereo not shown) [Compound 14, hydrochloride]	6.00 to 7.30
7) Cc1c2n(c(=O)c3[nH]c4cc(N)ncc4c(=O)c13)C(C)(c1ccccc1)NC2=O (stereo not shown)	4.00 to 6.00
8) CCC(=O)Nc1cc2c(cn1)Cc1c(C)c3n(c(=O)c1N2)C1(CCCCC1)NC3=O	> 7.30
9) Cl.[2H]C1([2H])c2cnc(N)cc2Nc2c1c(C)c1n(c2=O)C2(CCCCC2)NC1=O	> 7.30
10) Cc1c2c(c(=O)n3c1C(=O)NC3(C)C)Nc1cc(N)ncc1C2 [Compound 4, hydrochloride]	6.00 to 7.30

* * *

- methodNotes: Pharmacokinetic study in rats
- Type: in vivo
- experimentalConditions: male, SD, plasma, po; rat, 3 mg/kg
endpointName: Tmax (h)

1) Cc1c2c(c(=O)n3c1C(=O)NC31CCCCC1)Nc1cc(NC(=O)C3CC3)ncc1C2 [Compound 26]	1.75

* * *

- methodNotes: Pharmacokinetic study in rats
- Type: in vivo
- experimentalConditions: male, SD, plasma, iv; rat, 3 mg/kg
Where a name gives a salt, the structure may show the parent alone.
endpointName: half-life (h)

1) Cc1c2c(c(=O)n3c1C(=O)NC31CCCCC1)Nc1cc(N)ncc1C2 [Compound 2, hydrochloride]	1.58
